protocol-summary: Nitric Oxide Radical Absorbance (NORA) assay
Assay type: biochemical
stated-conditions: amount of test material required to inhibit nitric oxide oxidation by 50%; Table 3
Record form. Attribute: NORA EC50. Fill in for each entry.
I only need the number, in µg/mL, no unit after it.

Recorded NORA EC50 for CC(C=O)Cc1ccc(C(C)(C)C)cc1 (centres unmarked) , please?
23.70

Recorded NORA EC50 for O=c1[nH]c(=O)c2[nH]c(=O)[nH]c2[nH]1 [Uric Acid, reference compound] , please?
0.84

Recorded NORA EC50 for "Cc1ccc(C(C)C)cc1" , please?
274.16

Recorded NORA EC50 for CCCCCC1COCCC1OC(C)=O (centres unmarked) , please?
150.44

Recorded NORA EC50 for CC(C)CC1CC(C)(O)CCO1 (centres unmarked) , please?
150.33

Recorded NORA EC50 for "COc1cc(C=O)ccc1O" , please?
8.95

Recorded NORA EC50 for "CC(=O)CCc1ccc(O)cc1" , please?
10.14

Recorded NORA EC50 for Cc1c(C)c2c(c(C)c1O)CCC(C)(C(=O)O)O2 (centres unmarked) [Trolox, reference compound] , please?
0.046
